- tgt: FGFR4-WT (Homo sapiens (Human))
- Sequence (P22455 22-802): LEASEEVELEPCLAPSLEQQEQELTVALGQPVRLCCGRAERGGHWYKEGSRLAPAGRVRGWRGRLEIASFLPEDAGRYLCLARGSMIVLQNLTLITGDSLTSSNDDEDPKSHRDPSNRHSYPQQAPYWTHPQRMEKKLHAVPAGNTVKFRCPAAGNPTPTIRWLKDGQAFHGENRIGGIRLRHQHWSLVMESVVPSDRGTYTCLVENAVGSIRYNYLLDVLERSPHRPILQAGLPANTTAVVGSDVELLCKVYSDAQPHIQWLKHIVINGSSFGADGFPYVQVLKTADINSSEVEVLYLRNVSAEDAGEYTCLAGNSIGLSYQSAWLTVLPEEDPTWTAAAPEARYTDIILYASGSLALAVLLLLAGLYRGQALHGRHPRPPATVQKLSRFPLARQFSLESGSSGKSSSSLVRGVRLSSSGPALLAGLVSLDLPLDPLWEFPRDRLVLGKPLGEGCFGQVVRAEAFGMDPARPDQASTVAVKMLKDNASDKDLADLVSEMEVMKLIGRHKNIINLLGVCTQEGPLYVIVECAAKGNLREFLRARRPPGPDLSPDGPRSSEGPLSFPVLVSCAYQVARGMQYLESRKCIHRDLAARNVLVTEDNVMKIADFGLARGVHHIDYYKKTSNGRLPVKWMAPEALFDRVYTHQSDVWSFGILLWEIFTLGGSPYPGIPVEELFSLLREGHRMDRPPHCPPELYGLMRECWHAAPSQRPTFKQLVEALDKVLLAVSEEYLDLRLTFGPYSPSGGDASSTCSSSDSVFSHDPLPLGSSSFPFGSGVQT
- test.summary: Omnia assay for potency assessment against FGFR4 enzyme
- Format: biochemical
- condition.label: method a: [FGFR4-WT]=10 nM (Invitrogen), [ATP]=300 uM, [Y10-Sox]=10 uM
endpoint.label: IC50

INPUT: Consider the compound shown here: C=CC(=O)NC1COCC1Nc1ncc2c(n1)N(C)C(=O)N(c1c(Cl)c(OCC)cc(OCC)c1Cl)C2 (stereo not shown) [Compound I-205] What is its recorded IC50?
OUTPUT: 101 to 500 nM

INPUT: Consider the compound shown here: C=CC(=O)Nc1ccccc1Nc1ncc2c(n1)N(CC1CCN(C(=O)OC(C)(C)C)CC1)C(=O)N(c1cc(OC)cc(OC)c1)C2 [Compound I-60] What is its recorded IC50?
OUTPUT: < 100 nM

INPUT: Consider the compound shown here: C=CC(=O)Nc1ccccc1Nc1ncc2c(n1)N(CC)C(=O)N(CC)C2 [Compound I-120] What is its recorded IC50?
OUTPUT: > 1000 nM

INPUT: Consider the compound shown here: C=CC(=O)Nc1ccccc1Nc1ncc2c(n1)N(Cc1nccs1)C(=O)N(c1c(Cl)c(OC)cc(OC)c1Cl)C2 [Compound I-91] What is its recorded IC50?
OUTPUT: < 100 nM
